Property: Peak Temp (exotherm); scope: individual compounds
Assay: Hot block gel tests with polyester resin (curing)
Conditions: SET 2, block temp. 180 ± 1° F. (82° C.), 0.75 % Wt used

{"compound": "CCC(CC)C(=O)OOC(CC)(CC)OOC(=O)C(CC)CC", "Peak Temp (exotherm)": "271 °F."}
{"compound": "CCCCC(CC)C(=O)OOC(CC)(CC)OOC(=O)C(CC)CCCC (stereo not shown)", "Peak Temp (exotherm)": "260 °F."}
{"compound": "CCCCC(CC)C(=O)OOC(C)(CC)OOC(=O)C(CC)CCCC (stereo not shown) [KP-A, 2,2-Bis(2-Ethyl Hexanoylperoxy)Butane, reference compound]", "Peak Temp (exotherm)": "275 °F."}
{"compound": "CC(C)(C)C1CCC(OC(=O)OOC(=O)OC2CCC(C(C)(C)C)CC2)CC1 (stereo not shown) [DBCPD, Di4-t-butyl cyclohexylperoxydicarbonate, reference compound]", "Peak Temp (exotherm)": "260 °F."}

###

Experiment: Suspension polymerization of vinyl chloride monomer in pop bottles with gem-diperoxyester initiators
Details: SET 1, 7 hrs. at 22° C., 0.20 % Wt. used
Below, each of the molecules is paired with its reported % Conversion value.

{"molecule": "CCC(CC)C(=O)OOC(CC)(CC)OOC(=O)C(CC)CC", "% Conversion [%]": 4.3}
{"molecule": "CCCC(C)C(=O)OOC(CC)(CC)OOC(=O)C(C)CCC (centres unmarked)", "% Conversion [%]": 1.6}
{"molecule": "CCCCC(CC)C(=O)OOC(C)(CC)OOC(=O)C(CC)CCCC (centres unmarked) [KP-A, 2,2-Bis(2-Ethyl Hexanoylperoxy)Butane, reference compound]", "% Conversion [%]": 5.0}
{"molecule": "CCCCC(CC)C(=O)OOC(CC)(CC)OOC(=O)C(CC)CCCC (centres unmarked)", "% Conversion [%]": 10.7}
{"molecule": "CCC(CC)(OOC(=O)C(C)C)OOC(=O)C(C)C", "% Conversion [%]": 0.5}

###

Assay: Half-lives of gem-diperoxyesters (10 hour half-life temperature)
Assay type: physicochemical
Settings: 0.2M in benzene
Below, each entry is listed alongside its reported 10 Hour Half-Life Temperature.
measuredEndpoint: 10 Hour Half-Life Temperature

{"compound": "CCCCC(CC)C(=O)OOC(CC)(CC)OOC(=O)C(CC)CCCC (stereo not shown)", "valueMeasured": "39.7 °C"}
{"compound": "CCC(CC)C(=O)OOC(CC)(CC)OOC(=O)C(CC)CC", "valueMeasured": "40 °C"}
{"compound": "CCC(CC)(OOC(=O)C(C)(C)C)OOC(=O)C(C)(C)C", "valueMeasured": "24 °C"}
{"compound": "CCCCC(CC)C(=O)OOC(C)(CC)OOC(=O)C(CC)CCCC (stereo not shown) [KP-A, 2,2-Bis(2-Ethyl Hexanoylperoxy)Butane, reference compound]", "valueMeasured": "43.7 °C"}
